In this section we review reported melting point values for a set of compounds.

Use the examples below as a reference point.
COMPOUND: COc1cc(N)c2nc(OCc3ccc(Cl)cc3)ccc2c1
melting point: 124 to 125 °C
//
COMPOUND: O=C1C(=O)c2ccccc2C2=C1SCC1(CCN(CCCc3ccccc3)CC1)O2
melting point: 112 to 114 °C
//
COMPOUND: CCCCCS(=O)(=O)NC(=O)CC(C)c1ccc(OCCOC)cc1Oc1ncc(C(F)(F)F)cc1Cl (configuration not stated)
melting point: 137 °C

Dear colleague, I am looking for the recorded melting point of the following compound: CCCCN(CCCC)c1ccc(C=CC2=C(C#N)C(=C(C#N)C#N)OC2(c2ccccc2)C(F)(F)F)c(OC)c1 (configuration not stated)
191 to 194 °C

Proceed to COc1ccc(C2=NNC(=O)[C@H]3CC=CC[C@@H]23)cc1OC1CCCC1 (relative stereo)
166 to 168 °C

Proceed to Nc1cc(C(=O)c2cccc(C(=O)c3ccc(F)c(N)c3)c2)ccc1F
170 to 171 °C

Proceed to CCOC(=O)c1c(CCl)nc2ccc(Cl)cc2c1-c1ccc(Cl)cc1
140 to 141 °C

Proceed to O=C1C(c2ccccc2)=CC2CCCCCC12 (configuration not stated)
218 °C

Proceed to Cc1nc2c(s1)C(=O)C=C(NCCCN(C)CCCNC1=CC(=O)c3sc(C)nc3C1=O)C2=O
94 to 96 °C

Proceed to O=C(O)CCCc1ccc(C(=O)CCCc2ccccc2)cc1
111 to 112 °C

Proceed to C=C1CC(C=CC(O)CCCCC)C(O)(Cc2cccc(OCc3ccccc3)c2)C1 (configuration not stated)
58 °C

Proceed to CCNC(=O)CC1CN=C(c2cc3cc(Oc4ccc(S(C)(=O)=O)nc4)cc(OC)c3[nH]2)S1 (configuration not stated)
236 to 237 °C

----------
PROPERTY LABEL: melting point

Dear colleague, I am looking for the recorded melting point of the following compound: O=C(OCC(Cl)(Cl)Cl)N1CCCC(C(=O)OCc2ccccc2)(C(=O)OCc2ccccc2)C1
76 °C

Proceed to Cc1cccc(C)c1CNc1cc(C(=O)NCCO)cc2c1nc(C)n2C
259 to 260 °C

Proceed to CCc1noc(=O)c2ccc(NC(=O)C(=O)CC(C)(C)c3cc(F)ccc3OC)cc12
157 to 158 °C

Proceed to Cn1cc(C(=O)O)c(=O)c2cc(F)c(Cl)cc21
342 °C

Proceed to CCCc1nn(C)c2c(=O)[nH]c(-c3cc4cccc(OCC)c4o3)nc12
227 to 229 °C

Proceed to O=C(Cc1ccc(Cl)cc1)Nc1ccc(O)cc1O
178 to 179 °C

Proceed to Cc1cc(O)ccc1OCc1ccccc1
70 to 71 °C

Proceed to Cc1cc(C)c(C(C#N)c2nc(C)nc(Cl)c2C)c(C)c1 (centres undefined)
100 to 102 °C

Proceed to O=C(NOCC(O)CN1CCCCC1)NC1CCCCC1 (centres undefined)
108 to 110 °C

Proceed to CCCCc1ncc(C=C2C(=O)Nc3ccccc32)n1Cc1ccc(C(=O)O)cc1
237 to 238 °C

Proceed to CCCCCCCCCCCCCCCCOCC(COC(c1ccccc1)(c1ccccc1)c1ccccc1)COS(C)(=O)=O (centres undefined)
39 °C

Proceed to CCOC(=O)Cc1ccc(CCNC(=O)c2cc(C)ccc2OC)cc1
83 to 85 °C

Proceed to CC(C)(C)c1cc(-c2csc(CNc3ccccc3)n2)cc(C(C)(C)C)c1O
147 to 148 °C

Proceed to NCC(O)COCCCCCCCCc1ccccc1 (centres undefined)
50 to 54 °C

Proceed to CC12CCC3c4cc([N+](=O)[O-])c(OCc5ccccc5)cc4CCC3C1CCC2=O (centres undefined)
234 to 235 °C

Proceed to COC(=O)C[C@H](O)C[C@H](O)CCc1c(-c2ccc(F)cc2)c(-c2ccc(F)cc2)c(C(=O)Nc2cccc(C(=O)N(C)C)c2)n1C(C)C
95 to 98 °C

Proceed to O=S(=O)(NCCCCOc1ccc(-n2ccnc2)cc1)c1cccc2cccnc12
131 to 133 °C

Proceed to COc1cc2c(cc1Nc1ncc(Cl)c(N[C@@H]3CCCC[C@H]3NS(C)(=O)=O)n1)CCN(C(=O)CN(C)C)CC2
128 to 141 °C

Proceed to Fc1cc2c(cc1F)C(Cl)Cc1ccccc1S2 (centres undefined)
68 to 71 °C

Proceed to CN(C(=O)CN(C(=O)CNC(=O)Nc1cccc(S(N)(=O)=O)c1)c1ccccc1)c1ccccc1
175 °C

----------
In this section we review reported melting point values for a set of compounds.

Use the examples below as a reference point.
COMPOUND: COC(=O)NC(=S)Nc1cc(C(=O)c2ccccc2)ccc1NCc1ccccc1
DATA VALUE: 75 to 79 °C

COMPOUND: CCn1c(=O)c2c(nc(/C=C/c3cc4c(c(OC(C)=O)c3)OCO4)n2C)n(CC)c1=O
DATA VALUE: > 270 °C

COMPOUND: CC(C)(C)OC(=O)N1CCC(CC[C@@H]2CCCNC2=O)CC1
DATA VALUE: 110 to 111 °C

COMPOUND: CNC(=NS(C)(=O)=O)NCc1cccc(-c2csc(N=C(N)N)n2)n1
DATA VALUE: 254 to 255 °C

COMPOUND: Cc1oc(C2CCCCC2)nc1CC(=O)O
DATA VALUE: 102 to 103 °C

COMPOUND: O=c1[nH]ncc2[nH]c(-c3ccc(OC(F)F)c(OC4CC4)c3)cc12
DATA VALUE: 287 to 292 °C

COMPOUND: CCOc1cc(-c2cc(C(F)(F)F)nc(Cl)n2)ccc1C(F)(F)F
DATA VALUE: 89 °C

COMPOUND: Nc1ccc2c(c1)C(=O)N(CCO)C2=O
DATA VALUE: 171 to 173 °C

Dear colleague, I am looking for the recorded melting point of the following compound: COc1c(F)cc(F)c(OC)c1-c1ccc(C[C@H](NC(=O)c2c(Cl)cccc2Cl)C(=O)O)cc1
201 to 202 °C

Proceed to CC12CCC3c4ccc(C(=O)O)cc4CCC3C1CCC2C(=O)c1cccs1 (centres undefined)
177 to 179 °C

Proceed to COc1ccc(-c2cc(C(=O)O)nnc2-c2ccc(OC)cc2)cc1
157 to 158 °C

Proceed to CCOC(=O)c1c(C(F)(F)F)nc(C(F)(F)Cl)c(C(=O)OC)c1NC(C)(C)C
51.5 to 53 °C

Proceed to COC(=O)c1cccc(O)c1O
79 to 81 °C

Proceed to Nc1ccc(OCc2ccc(Cl)cc2)cc1F
73 to 75 °C

----------
In this section we review reported melting point values for a set of compounds.

Use the examples below as a reference point.
COMPOUND: CC(C)N=C(NC#N)Nc1cc(C(F)(F)F)cc(C(F)(F)F)c1
DATA VALUE: 176 to 182 °C

COMPOUND: CS(=O)(=O)c1cccc(-n2c(=O)c(CCCc3ccncc3)cc3cccnc32)c1
DATA VALUE: 127 to 131 °C

COMPOUND: CN(C)CCCCNc1nc2cc(Cl)c(Cl)cc2nc1-c1ccccn1
DATA VALUE: 81 to 83 °C

COMPOUND: Cn1cnc2c1c(=O)n(CCCO)c(=O)n2C
DATA VALUE: 139 to 140 °C

COMPOUND: Cc1c(O)c(C(C)(C)C)c(Cc2cc(C(C)(C)C)c(O)c(C(C)(C)C)c2)c(C)c1Cc1cc(C(C)(C)C)c(O)c(C(C)(C)C)c1
DATA VALUE: 140 °C

We now examine a further compound.
Dear colleague, I am looking for the recorded melting point of the following compound: Cn1c(CN2C(=O)C3(COc4cc5c(cc43)CCO5)c3ccccc32)nc2ccccc21 (centres undefined)
244 to 246 °C

----------
In this section we review reported melting point values for a set of compounds.

Use the examples below as a reference point.
COMPOUND: COc1cccc(/C=C/C(=O)N2CC(CCl)c3c2cc([N+](=O)[O-])c2ccccc32)c1 (configuration not stated)
melting point: 200 °C
--
COMPOUND: CCC(C)c1cc(Cc2cc(C(C)CC)c(N)c(C)c2Cl)c(Cl)c(C)c1N (configuration not stated)
melting point: 94 to 102 °C
--
COMPOUND: Cn1cc(C#N)cc1C=O
melting point: 125 to 126 °C
--
COMPOUND: O=C(Nc1cc2ncc(CN3CCCC3)cc2cc1N1CCCC1)c1ccc(-c2ccc(F)cc2)cc1
melting point: 182 to 184 °C
--
COMPOUND: CC1(C)C(=O)NCCN1C(=O)C(Cc1ccccc1)N1C(=O)c2ccccc2C1=O (configuration not stated)
melting point: 221 to 223 °C
--
COMPOUND: O=C(O)c1cc(OCc2ccccc2)nn1-c1ccccc1
melting point: 163 to 164 °C
--
COMPOUND: Cn1cc(-c2ccnc(Cl)n2)c(-c2ccc(Cl)cc2Cl)n1
melting point: 165 to 166 °C
--
COMPOUND: CN(C)Cc1cc(OCCCO)cs1
melting point: 32 to 34 °C
--
COMPOUND: CC1(C)CC(=S)Nc2ccc(-c3cccc(F)c3)cc21
melting point: 209 to 211 °C
--
COMPOUND: O=C1CCc2c(-c3ccncc3)sc(-c3cccnc3)c21
melting point: 214 to 216 °C

Dear colleague, I am looking for the recorded melting point of the following compound: COC(=O)C1(c2ccc(OCCNC(=O)C3Cc4ccccc4N3S(=O)(=O)c3ccc(-c4cc(C(F)(F)F)ccc4Cl)cc3)cc2)CC1 (configuration not stated)
64 to 72 °C

Proceed to O=C1c2ccccc2C(=O)N1CCCCOc1ccc(-n2cnnn2)cc1
143 to 145 °C
